The values you see were collected from patent US5594001A.

System: ACh level in the rat hippocampus
Assay: Microdialysis, ACh levels in the rat hippocampus in vivo
Parameters: species or system rat (male Wistar)
Conditions: Table IV; 5 mg/kg, vehicle water
Measured Attribute: time of Peak after administration (min)
# number only, unit min dropped from output

* Fc1cc(CC2(Cc3ccncc3)c3ccccc3-c3sccc32)ccn1 (stereo not drawn) | 180
* O=C1c2ccccc2C(Cc2ccncc2)(Cc2ccncc2)c2ccccc21 [Ex 440 U.S. Pat. No. 5,173,489, reference compound] | 20
* Fc1cc(CC2(Cc3ccncc3)c3ccccc3-c3ncccc32)ccn1 (stereo not drawn) | 40
* Fc1cc(CC2(Cc3ccnc(F)c3)c3ccccc3-c3ncccc32)ccn1 | 100
* O=C1N(c2ccccc2)c2ccccc2C1(Cc1ccncc1)Cc1ccncc1 [linopirdine, reference compound] | 40

Here's the next entry for you.
Note to self: time of Peak after administration recorded for `Fc1cc(CC2(Cc3ccnc(F)c3)c3cccnc3-c3sccc32)ccn1` was 20

* * *

System: ACh level in the rat hippocampus
Experiment: Microdialysis, ACh levels in the rat hippocampus in vivo
Set-up: species or system rat (male Wistar)
Conditions: Table IV; 5 mg/kg, vehicle water
Please mark Yes if the recorded AUC, Area % under the curve is equal to or greater than 200%, and No if it falls below.

These recorded examples may help you get a feel for the data.
• Fc1cc(CC2(Cc3ccnc(F)c3)c3cccnc3-c3sccc32)ccn1 = Yes
• O=C1N(c2ccccc2)c2ccccc2C1(Cc1ccncc1)Cc1ccncc1 [linopirdine, reference compound] = No
• Fc1cc(CC2(Cc3ccncc3)c3ccccc3-c3sccc32)ccn1 (stereo not drawn) = Yes
• O=C1c2ccccc2C(Cc2ccncc2)(Cc2ccncc2)c2ccccc21 [Ex 440 U.S. Pat. No. 5,173,489, reference compound] = No
• Fc1cc(CC2(Cc3ccncc3)c3ccccc3-c3ncccc32)ccn1 (stereo not drawn) = No

Shift focus to the following entry.
Q. Does `Fc1cc(CC2(Cc3ccnc(F)c3)c3ccccc3-c3ncccc32)ccn1` have a reported AUC, Area % under the curve of at least 200%?
A. Yes

* * *

System: ACh level in the rat hippocampus
Assay: Microdialysis, ACh levels in the rat hippocampus in vivo
Parameters: species or system rat (male Wistar)
Settings: Table IV; 5 mg/kg, vehicle water; NSP = no significant points
Listed next: entries and their corresponding Duration, minutes of release above statistical significance.
Give the quantity in min, number only.

Some entries whose results are on file:
* Fc1cc(CC2(Cc3ccnc(F)c3)c3ccccc3-c3ncccc32)ccn1 | 120
* Fc1cc(CC2(Cc3ccnc(F)c3)c3cccnc3-c3sccc32)ccn1 | 40

Consider O=C1N(c2ccccc2)c2ccccc2C1(Cc1ccncc1)Cc1ccncc1 [linopirdine, reference compound] . Its measured Duration, minutes of release above statistical significance is 20

* * *

Tested on: ACh level in the rat hippocampus
Assay: Microdialysis, ACh levels in the rat hippocampus in vivo
Parameters: species or system rat (male Wistar)
Details: Table IV; 1 mg/kg, vehicle methocel
Catalogue of compounds with associated AUC, Area % under the curve
Only the number, expressed in %, is required.

Sample answers from the record:
* Fc1cc(CC2(Cc3ccnc(F)c3)c3ccccc3Oc3ncccc32)ccn1 | 666
* O=C1c2ccccc2C(Cc2ccnc(F)c2)(Cc2ccnc(F)c2)c2ccccc21 | 711
* [O-][S+]1c2ccccc2C(Cc2ccnc(F)c2)(Cc2ccnc(F)c2)c2ccccc21 | 184

Kindly review the next compound as well.
The measured AUC, Area % under the curve associated with `Fc1cc(CC2(Cc3ccnc(F)c3)c3ccccc3-c3ncccc32)ccn1` reads 304

* * *

# Peak, maximal % increase of ACh release over baseline per record follows
Tested on: ACh level in the rat hippocampus
Assay: Microdialysis, ACh levels in the rat hippocampus in vivo
Set-up: species or system rat (male Wistar)
Conditions: Table IV; 1 mg/kg, vehicle methocel
Description: Male Wistar Rats are anaesthetized and guide cannulas stereotaxically implanted into the brain at the level of the dorsal hippocampus. […] ACh peak heights post drug administration are measured and used to determine percent change over baseline ACh levels. […] ACh is separated by reverse phase chromatography (Hamilton PRP-1 column 150×4.5 mm) and converted to acetate, betaine and hydrogen peroxide on an immobilized enzyme reactor column (BAS). Hydrogen peroxide is then detected electrochemically. […]
Record the result as a number with its unit.

Recorded results for 3 compounds are shown here.
* O=C1c2ccccc2C(Cc2ccnc(F)c2)(Cc2ccnc(F)c2)c2ccccc21 [Example 64] | 115 ± 27%
* Fc1cc(CC2(Cc3ccnc(F)c3)c3ccccc3Oc3ncccc32)ccn1 [Example 67] | 123 ± 62%
* [O-][S+]1c2ccccc2C(Cc2ccnc(F)c2)(Cc2ccnc(F)c2)c2ccccc21 [Example 108] | 34 ± 19%

Consider the record given below.
# lookup: Fc1cc(CC2(Cc3ccnc(F)c3)c3ccccc3-c3ncccc32)ccn1 [Example 68] on ACh level in the rat hippocampus, Peak, maximal % increase of ACh release over baseline = 74 ± 29%

* * *

Test system: ACh level in the rat hippocampus
Assay: Microdialysis, ACh levels in the rat hippocampus in vivo
Set-up: species or system rat (male Wistar)
Settings: Table IV; 5 mg/kg, vehicle water; NSP = no significant points
Measured Attribute: Duration, minutes of release above statistical significance

- Fc1cc(CC2(Cc3ccncc3)c3ccccc3-c3ncccc32)ccn1 (stereo not drawn): NSP
- O=C1c2ccccc2C(Cc2ccncc2)(Cc2ccncc2)c2ccccc21 [Ex 440 U.S. Pat. No. 5,173,489, reference compound]: NSP
- Fc1cc(CC2(Cc3ccncc3)c3ccccc3-c3sccc32)ccn1 (stereo not drawn): NSP
